# system name: amylin receptor in membranes prepared from the nucleus accumbens portion of the brain (rat) (rat)
# assay remarks: displacement of 125I-rat amylin from rat nucleus accumbens membranes
No end group written: not given here.
measured attribute: IC50 (nM)

[
  {
    "binder": "CNTATCATQRLANFLVRSSNNLGPK(mPEG40KD)LPPTNVGSNTY-NH2 (ends and bridges not checked) [Cmpd 24, [K^26(mPEG40KD)]-Cmpd 6]",
    "measurement units": "nM",
    "recorded value": 54
  },
  {
    "binder": "KCNTATCATQRLANFLVRSSNNLGPVLPPTK(mPEG40KD)VGSNTY-NH2 (ends and bridges not checked) [Cmpd 25, [K^31(mPEG40KD)]-Cmpd 7]",
    "measurement units": "nM",
    "recorded value": 86
  },
  {
    "binder": "CNTATCATQRLANFLVRSSNNLGPVLPPTNVGSNTY-NH2 (ends and bridges not checked) [Cmpd 2 ([desLys^1]-Cmpd 1)]",
    "measurement units": "nM",
    "recorded value": 0.42
  },
  {
    "binder": "KCNTATCATQRLANFLVRSSK(mPEG40KD)NLGPVLPPTNVGSNTY-NH2 (ends and bridges not checked) [Cmpd 21, [K^21(mPEG40KD)]-Cmpd 3]",
    "measurement units": "nM",
    "recorded value": 104
  },
  {
    "binder": "KCNTATCATQRLANFLVRSSNNLGPK(mPEG40KD)LPPTNVGSNTY-NH2 (ends and bridges not checked) [Cmpd 23, [K^26(mPEG40KD)]-Cmpd 5]",
    "measurement units": "nM",
    "recorded value": 66
  },
  {
    "binder": "KCNTATCATQRLANFLVRSSNNLGPK(Y‑shaped‑mPEG40KD)LPPTNVGSNTY-NH2 (ends and bridges not checked) [Cmpd 27, [K^26(Y-shaped-mPEG4OKD)]-Cmpd 5]",
    "measurement units": "nM",
    "recorded value": 470
  },
  {
    "binder": "CNTATCATQRLANFLVRSSNNLGPVLPPTK(mPEG40KD)VGSNTY-NH2 (ends and bridges not checked) [Cmpd 26, [K^31(mPEG40KD)]-Cmpd 8]",
    "measurement units": "nM",
    "recorded value": 75
  },
  {
    "binder": "CNTATCATQRLANFLVRSSK(mPEG40KD)NLGPVLPPTNVGSNTY-NH2 (ends and bridges not checked) [Cmpd 22, [K^21(mPEG40KD)]-Cmpd 4]",
    "measurement units": "nM",
    "recorded value": 112
  },
  {
    "binder": "mPEG40KD-CNTATCATQRLANFLVRSSNNLGPVLPPTNVGSNTY-NH2 (ends and bridges not checked) [Cmpd 20, mPEG40KD-Cmpd 2]",
    "measurement units": "nM",
    "recorded value": 78
  }
]

These measurements were taken from patent US20140221287A1.
